Hey, just so you know, these numbers are from PubChem BioAssay.

Measured composite z-score, listed per entry.
system: Human papillomavirus type 1a protein E7 (residues 44-93); test: HPV1a E7 fragment binders on microarrays, primary screen, biochemical, small-molecule microarray, residues 44-93, 635 nm fluorescence (AID 1108); details: small-molecule microarray binding, fluorescence 635 nm; higher = more signal;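 further: E7 fragment applied at 1 µg/mL in TBST for 1 h at 4 C; score combines spot fluorescence with its signal to noise ratio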
Number, no unit, nothing else.

Consider the reported composite z-score for these molecules:
MOLECULE | composite z-score
COCCOC(=O)N1C(=O)[C@@]2(c3cc(C#Cc4ccc(OC)cc4)ccc31)[C@H](c1ccc(OCCO)cc1)N1[C@H](c3ccccc3)[C@H](c3ccccc3)OC(=O)[C@H]1[C@@H]2C(=O)Nc1nc2ccccc2s1 | 1.34
C=CCC(OC(C)=O)[C@@H]1[C@@H](N(Cc2cccc3ccccc23)C(=O)c2ccc(-c3ccccc3)cc2)c2cc(OCCCO)ccc2N1C(=O)c1ccc(-c2ccccc2)cc1 (stereo not given in full) | 0.635
O=C1C[C@@](C(=O)NCC(F)(F)F)(c2ccc([N+](=O)[O-])cc2)[C@@H](c2ccc(CO)cc2)N1CC12CC3CC(CC(C3)C1)C2 | 0.913
CCCCCCCCCCC(O)C1C=CC2C(=O)N(C)C(=O)C2N1Nc1cc(OC)c(OC)c(OC)c1 (stereo not given) | -0.298
CCOC(=O)C[C@H]1[C@H](OC(=O)c2ccc(-c3ccccc3)cc2)[C@@H](NC(=O)Cc2ccc(OC)cc2)c2cc(OCCCO)ccc2N1C(=O)Cc1ccc(OC)cc1 | 0.102

Item O=C1C2C=CC(C(O)c3ccco3)N(Nc3ccccc3)C2C(=O)N1c1ccccc1 (stereo not given) : provide composite z-score
-0.335

Item C=CC1c2cc(O)c(OC)cc2CCN1Cc1ccc([N+](=O)[O-])o1 (stereo not given) : provide composite z-score
0.0967

Item `COCCOC(=O)N1C(=O)[C@@]2(c3ccccc31)[C@H](c1ccc(OCCO)cc1)N1[C@H](c3ccccc3)[C@H](c3ccccc3)OC(=O)[C@H]1[C@@H]2C(=O)N1CCCCCCC1` : provide composite z-score
1.52

Item CCOC(=O)C1=CCN(S(=O)(=O)c2ccc(C)cc2)C1c1ccccc1 (stereo not given) : provide composite z-score
0.666

Item `COCCOC(=O)N1C(=O)[C@@]2(c3cc(C#CC4=CCCCC4)ccc31)[C@H](C(=O)N1CCCCCCC1)[C@H]1C(=O)O[C@H](c3ccccc3)[C@H](c3ccccc3)N1[C@@H]2c1ccc(OCCO)cc1` : provide composite z-score
1.18

Item `CCOC(=O)C[C@H]1[C@H](OC(=O)c2cc3ccccc3oc2=O)[C@@H](NC(=O)c2ccc3ccccc3c2)c2cc(OCCCO)ccc2N1C(=O)Cc1ccc(OC)cc1` : provide composite z-score
1.16

Item `Cc1nc2cc(Br)ccc2c(=O)n1Cc1cccc(O)c1` : provide composite z-score
0.804

Item `CCCNC(=O)[C@@]1(Sc2ccc(C)cc2)CC(=O)N(C(C)C)[C@@H]1c1ccc(CO)cc1I` : provide composite z-score
-0.593

Item `C=C(CCCC)C(=O)CC[C@H](OC(=O)c1ccccc1-c1ccccc1C(=O)O)c1ccccc1OCCO` : provide composite z-score
0.166

Item `COc1ccc([Si](C)(C)[C@@H]2[C@@H](CC(=O)N3Cc4ccccc4C[C@H]3CO)O[C@]3(C(=O)N(c4ccccc4)c4ccccc43)[C@H]2C)cc1` : provide composite z-score
1.38

Item CN1C(=O)C2C=CC(C(O)c3cc(C(F)(F)F)cc(C(F)(F)F)c3)N(Nc3ccccc3)C2C1=O (stereo not given) : provide composite z-score
0.792

Item `Cc1ccc(S[C@]2(C(=O)NC(C)C)CC(=O)N(Cc3ccccc3Cl)[C@@H]2c2ccc(CO)cc2)cc1` : provide composite z-score
0.949

Item `CCOC(=O)C[C@H]1[C@H](OC(=O)c2ccc(-c3ccccc3)cc2)[C@@H](NC(=O)CC(C)C)c2cc(OCCCO)ccc2N1C(=O)c1ccccc1` : provide composite z-score
1.07

Item `COCC1=C2[C@@H](CCc3ccccc3)OB(O)C[C@@H]2[C@@H]2C(=O)N(C)C(=O)[C@@H]2C1` : provide composite z-score
-0.152

###

assay: binders of probe aHhip on microarray, primary screen, stem cell growth factor project, biochemical, small-molecule microarray, fluorescence 635/667 (AID 1087); settings: higher = more signal;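 further: score merges spot fluorescence at 667nm with spot signal to noise ratio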
Binary call on composite z-score: true (1) from -0.1 upward, false (0) beneath that.

COMPOUND | CATEGORY
CCCCCCCCCCC(O)C1C=CC2C(=O)N(c3ccccc3)C(=O)C2N1Nc1ccccc1F (stereo not drawn) | false (0)

Attention now shifts to the item below.
Could you please find out whether `COC(=O)c1c2oc(c1C(=O)OC)C(=O)N1CCC[C@H]1Cn1nncc1CN(Cc1ccccc1)C(=O)N[C@H](CO)CC2` has composite z-score that meets -0.1 or exceeds it?
false (0)

###

tested on: Sam68 (KHDRBS1); test: Sam68 small-molecule binders, primary screen, biochemical, small-molecule microarray, 635 nm fluorescence (AID 1125); details: small-molecule microarray binding, higher = more signal;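 further: score merges 667 nm channel intensity with signal to noise over triplicate slides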
PARAMETER: composite z-score
Number, no unit, nothing else.

Consider the reported composite z-score for these compounds:
COMPOUND | VALUE REPORTED
C=C(COC)/C(=C/C[C@@H](OC(C)=O)c1ccc(CO)o1)c1cc(C(=O)OC)ccc1OC | 0.246
Cc1ccc(N2C(=O)c3ccccc3[C@](C)(C(=O)NCc3ccccc3)[C@@H]2c2ccc(CO)cc2)nc1 | -0.316
COCCCNC(=O)[C@@H]1c2ccccc2C(=O)N(C2Cc3ccccc3C2)[C@H]1c1ccc(CO)cc1 | 0.749
CCc1cccc(NC(=O)O[C@H]2[C@H](OC(=O)Nc3ccccc3)[C@H](OC(=O)Nc3ccccc3)[C@@H](OC)O[C@@H]2CO)c1 | 1.29

Item `O=C1[C@@H]2[C@@H](CC(COc3ccccc3)=C3[C@@H](CCc4ccccc4)OB(O)C[C@@H]32)C(=O)N1Cc1ccccc1` : provide composite z-score
-0.258

Item `NCCCCCNC(=O)[C@@H]1C[C@@H]2C(=O)N3CCC[C@H]3C(=O)N2[C@@H]1c1ccc(O)cc1` : provide composite z-score
0.776

Item C=CCC(OC(C)=O)[C@@H]1[C@@H](N(Cc2ccc(-c3cccc(C(F)(F)F)c3)o2)C(=O)c2cccc3ccccc23)c2cc(OCCCO)ccc2N1C(=O)Cc1ccc(OC)cc1 (some centres not stated) : provide composite z-score
-0.323

###

Measured composite z-score, listed per entry.
test: binders of probe aHhip on microarray, primary screen, stem cell growth factor project, biochemical, small-molecule microarray, fluorescence 635/667 (AID 1087); conditions: higher = more signal;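 further: score merges spot fluorescence at 667nm with spot signal to noise ratio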
Number, no unit, nothing else.

Consider the reported composite z-score for these compounds:
COMPOUND | composite z-score
C=CC[C@H](OC(=O)Nc1ccc(SC)cc1)c1ccc(OCCO)cc1 | -0.0994
Cc1cccc([C@H]2C[C@H]3C(Br)=C[C@@H]2C(=O)[C@]32CO2)c1 | -0.0169
CC(C)CNC(=O)[C@@]1(C)c2ccccc2C(=O)N(Cc2cc(C(F)(F)F)cc(C(F)(F)F)c2)[C@H]1c1ccc(CO)cc1 | 0.0156
O=C(CS)NCCCCCCNC(=O)[C@@H]1C[C@@H]2C(=O)NCC(=O)N2[C@@H]1c1ccc(O)cc1 | -0.0324
COc1cc2c(cc1O)C(c1cccs1)N(Cc1sc3ccccc3c1Cl)CC2 (stereo unspecified) | 3.57

Item C=CCC(OC(C)=O)[C@@H]1[C@@H](N(Cc2cc3ccccc3o2)C(=O)c2ccc(-c3ccccc3)cc2)c2cc(OCCCO)ccc2N1C(=O)Cc1ccc(OC)cc1 (stereo partly specified) : provide composite z-score
-0.189

Item CS(=O)(=O)CCOC(=O)C1=CC(CCCO)=CC(C2CC2)N(Cc2cccc(OC(F)(F)F)c2)C=C1C(=O)OCCS(C)(=O)=O (stereo unspecified) : provide composite z-score
-0.0994

Item `COCCOC(=O)N1C(=O)[C@@]2(c3cc(C#CCCO)ccc31)[C@H](C(N)=O)[C@H]1C(=O)O[C@H](c3ccccc3)[C@H](c3ccccc3)N1[C@@H]2c1ccc(OCCO)cc1` : provide composite z-score
-0.0994

Item `COCC(=C=CC[C@@H](O)c1cccc(OCCO)c1)CCO` : provide composite z-score
-0.0074

Item `COc1cccc(/C=C(\C#N)C(=O)Nc2c(C)n(C)n(-c3ccccc3)c2=O)c1` : provide composite z-score
-0.216

Item `NC(=O)[C@@H]1[C@H]2C(=O)O[C@H](c3ccccc3)[C@H](c3ccccc3)N2[C@H](c2ccc(OCCO)cc2)[C@@]12C(=O)Nc1ccc(C#CCCO)cc12` : provide composite z-score
-0.236

Item `CCOC(=O)C1=C[C@@H](c2ccccc2)N(S(=O)(=O)c2ccc(C)cc2)[C@H]1c1ccccc1` : provide composite z-score
-0.0994

Item `CC(C)[Si]1(C(C)C)OCc2cc(-c3ccc(-c4ccc(Cl)c(Cl)c4)o3)nc(CCc3ccccc3)c21` : provide composite z-score
-0.201

Item O=C1C2C=CC(C(O)c3ccc4c(c3)OCO4)N(Nc3ccccc3)C2C(=O)N1c1ccccc1 (stereo unspecified) : provide composite z-score
-0.204

Item `O=C1N[C@@H](Cc2ccccc2)C(=O)N2[C@@H]1C[C@@H](C(=O)O)[C@H]2c1ccc(O)cc1` : provide composite z-score
-0.257

Item `CC(C)(C)OC(=O)CC[C@]12N=C(c3ccc(OCCCO)cc3)O[C@H]1c1ccccc1N(Cc1ccccc1)C2=O` : provide composite z-score
-0.187
